// provenance: ChEMBL document CHEMBL1149392

Catalogue of IC50 readings, one per entry.
- SYSTEM_UNDER_TEST: UniProtKB P30307
- Sequence (P30307 whole entry): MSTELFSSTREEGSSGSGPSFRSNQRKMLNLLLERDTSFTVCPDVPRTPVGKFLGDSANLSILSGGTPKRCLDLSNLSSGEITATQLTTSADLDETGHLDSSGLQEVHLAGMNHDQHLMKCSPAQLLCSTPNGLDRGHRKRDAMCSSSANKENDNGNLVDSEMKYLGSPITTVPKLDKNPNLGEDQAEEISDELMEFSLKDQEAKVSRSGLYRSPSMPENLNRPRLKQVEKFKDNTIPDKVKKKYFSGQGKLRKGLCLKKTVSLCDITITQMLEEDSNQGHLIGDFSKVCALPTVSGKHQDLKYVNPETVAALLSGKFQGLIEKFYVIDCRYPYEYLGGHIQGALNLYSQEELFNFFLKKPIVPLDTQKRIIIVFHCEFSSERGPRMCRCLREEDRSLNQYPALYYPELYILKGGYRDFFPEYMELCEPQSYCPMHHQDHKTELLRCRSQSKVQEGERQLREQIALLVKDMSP

>>> value_observed("CCCCCCCCCCCCCCc1ccc(C(=O)c2ccc3c(-c4ccc(OCC(=O)O)cc4)nocc2-3)cc1")
"2.27 µM"
>>> value_observed("NCc1ccc(C(=O)c2ccc3c(-c4ccc(OCC(=O)O)cc4)nocc2-3)cc1")
"> 10 µM"

Okay, now this molecule:
Request: What is its IC50 for UniProtKB P30307? Entry: COc1ccc(C(=O)c2ccc3c(-c4ccc(OCC(=O)O)cc4)nocc2-3)cc1
Result: 61.7 µM

====

- SYSTEM_UNDER_TEST: UniProtKB P51452
- Sequence (P51452 whole entry): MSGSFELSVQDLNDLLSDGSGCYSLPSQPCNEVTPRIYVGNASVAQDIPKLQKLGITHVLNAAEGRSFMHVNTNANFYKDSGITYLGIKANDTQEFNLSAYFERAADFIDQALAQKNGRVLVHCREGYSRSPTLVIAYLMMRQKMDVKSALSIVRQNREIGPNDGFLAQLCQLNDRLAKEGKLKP
REPORTED_PROPERTY: IC50 (µM)
Could you give me the number in µM? Just the number is fine.

Request: State the recorded IC50 for this entry: COc1ccc(C(=O)c2ccc3c(-c4ccc(OCC(=O)O)cc4)nocc2-3)cc1
Result: 181

====

- SYSTEM_UNDER_TEST: UniProt:P18031
- Sequence (whole entry): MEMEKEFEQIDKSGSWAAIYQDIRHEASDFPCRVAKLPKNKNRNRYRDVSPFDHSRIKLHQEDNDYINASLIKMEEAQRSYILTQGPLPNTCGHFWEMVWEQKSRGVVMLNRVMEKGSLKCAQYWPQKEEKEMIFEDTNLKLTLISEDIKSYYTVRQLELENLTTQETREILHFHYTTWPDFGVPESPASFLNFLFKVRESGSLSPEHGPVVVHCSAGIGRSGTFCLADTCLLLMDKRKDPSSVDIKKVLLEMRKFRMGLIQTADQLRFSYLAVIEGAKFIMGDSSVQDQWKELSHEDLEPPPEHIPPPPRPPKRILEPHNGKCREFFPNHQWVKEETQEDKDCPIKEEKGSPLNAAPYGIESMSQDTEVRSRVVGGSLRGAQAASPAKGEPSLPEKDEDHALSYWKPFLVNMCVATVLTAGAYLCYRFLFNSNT
- TEST_DESCRIPTION: Inhibitory activity against recombinant human PTP1B at 10 uM
REPORTED_PROPERTY: inhibition

>>> value_observed("COc1ccc(C(=O)c2ccc3c(-c4ccc(OCC(=O)N5CCN(Cc6ccccc6)CC5)cc4)nocc2-3)cc1")
"68.8%"
>>> value_observed("O=C(O)COc1ccc(-c2nocc3c(C(=O)c4cccc(C(F)(F)F)c4)ccc2-3)cc1")
"68.9%"
>>> value_observed("COc1ccc(O)c(CC(=O)c2ccc3c(-c4ccc(OCC(=O)O)cc4)nocc2-3)c1")
"48.7%"

Request: What is its inhibition for UniProt:P18031? Entry: O=C(O)COc1ccc(-c2nocc3c(C(=O)c4ccccc4F)ccc2-3)cc1
Result: 11.9%

====

Read-out record for M-phase inducer phosphatase 2 (Homo sapiens): pIC50
Notebook: values listed as pIC50 are -log10 of the concentration (mol/L).

>>> value_observed("NCc1ccc(C(=O)c2ccc3c(-c4ccc(OCC(=O)O)cc4)nocc2-3)cc1")
5.00
>>> value_observed("CCCCCCCCCCCCCCc1ccc(C(=O)c2ccc3c(-c4ccc(OCC(=O)O)cc4)nocc2-3)cc1")
6.92

Okay, now this molecule:
Request: State the recorded pIC50 for this entry: COc1ccc(C(=O)c2ccc3c(-c4ccc(OCC(=O)O)cc4)nocc2-3)cc1
Result: 4.79

====

Read-out record for Tyrosine-protein phosphatase YopH (Yersinia enterocolitica): pIC50
Notebook: values listed as pIC50 are -log10 of the concentration (mol/L).

Below: 2 molecules and their reported pIC50.
>>> value_observed("CCCCCCCCCCCCCCc1ccc(C(=O)c2ccc3c(-c4ccc(OCC(=O)O)cc4)nocc2-3)cc1")
6.26
>>> value_observed("NCc1ccc(C(=O)c2ccc3c(-c4ccc(OCC(=O)O)cc4)nocc2-3)cc1")
5.92

Okay, now this molecule:
Request: State the recorded pIC50 for this entry: COc1ccc(C(=O)c2ccc3c(-c4ccc(OCC(=O)O)cc4)nocc2-3)cc1
Result: 5.24

====

- SYSTEM_UNDER_TEST: Serine/threonine-protein phosphatase PP1-gamma catalytic subunit (Homo sapiens, UniProt P36873)
- Sequence (P36873 whole entry): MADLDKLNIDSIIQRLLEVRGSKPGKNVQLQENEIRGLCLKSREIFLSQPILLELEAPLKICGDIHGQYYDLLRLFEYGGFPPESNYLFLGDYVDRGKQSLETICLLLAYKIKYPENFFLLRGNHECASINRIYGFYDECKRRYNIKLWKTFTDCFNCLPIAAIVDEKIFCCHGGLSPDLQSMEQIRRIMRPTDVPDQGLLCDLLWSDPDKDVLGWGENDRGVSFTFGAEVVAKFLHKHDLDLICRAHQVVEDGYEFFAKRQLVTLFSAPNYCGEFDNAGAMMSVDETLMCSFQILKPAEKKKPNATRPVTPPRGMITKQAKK
- TEST_DESCRIPTION: Inhibitory activity against Protein phosphatase 1
Catalogue of pIC50 readings, one per entry.
Notebook: values listed as pIC50 are -log10 of the concentration (mol/L).

Below: 2 molecules and their reported pIC50.
>>> value_observed("COc1ccc(C(=O)c2ccc3c(-c4ccc(OCC(=O)O)cc4)nocc2-3)cc1")
4.45
>>> value_observed("NCc1ccc(C(=O)c2ccc3c(-c4ccc(OCC(=O)O)cc4)nocc2-3)cc1")
5.89

Request: State the recorded pIC50 for this entry: CCCCCCCCCCCCCCc1ccc(C(=O)c2ccc3c(-c4ccc(OCC(=O)O)cc4)nocc2-3)cc1
Result: 6.66

====

Read-out record for Receptor-type tyrosine-protein phosphatase F (Homo sapiens, UniProt P10586): IC50
Could you give me the number in µM? Just the number is fine.

>>> value_observed("CCCCCCCCCCCCCCc1ccc(C(=O)c2ccc3c(-c4ccc(OCC(=O)O)cc4)nocc2-3)cc1")
0.69

Okay, now this compound:
Request: State the recorded IC50 for this entry: COc1ccc(C(=O)c2ccc3c(-c4ccc(OCC(=O)O)cc4)nocc2-3)cc1
Result: 61.7

====

Catalogue of log10(IC50) readings, one per entry.
- SYSTEM_UNDER_TEST: Tyrosine-protein phosphatase non-receptor type 1 (Homo sapiens, UniProt P18031)
- Sequence (P18031 whole entry): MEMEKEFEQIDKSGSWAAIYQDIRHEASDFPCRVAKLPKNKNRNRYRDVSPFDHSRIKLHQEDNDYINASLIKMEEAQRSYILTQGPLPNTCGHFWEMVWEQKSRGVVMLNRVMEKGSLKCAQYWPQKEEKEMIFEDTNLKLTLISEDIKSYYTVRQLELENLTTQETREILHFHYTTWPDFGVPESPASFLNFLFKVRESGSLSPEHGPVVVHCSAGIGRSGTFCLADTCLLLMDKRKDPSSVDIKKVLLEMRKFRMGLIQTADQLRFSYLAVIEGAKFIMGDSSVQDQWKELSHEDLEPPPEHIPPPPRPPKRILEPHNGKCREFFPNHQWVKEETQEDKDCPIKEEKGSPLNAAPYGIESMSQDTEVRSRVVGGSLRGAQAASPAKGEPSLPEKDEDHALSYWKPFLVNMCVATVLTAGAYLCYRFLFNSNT
- TEST_DESCRIPTION: Inhibitory activity against recombinant human PTP1B
Remember, log10 of IC50, in nM.

Below: 5 molecules and their reported log10(IC50).
>>> value_observed("NCc1ccc(C(=O)c2ccc3c(-c4ccc(OCC(=O)O)cc4)nocc2-3)cc1")
3.33
>>> value_observed("COc1cccc(C(=O)c2ccc3c(-c4ccc(OCC(=O)O)cc4)nocc2-3)c1")
3.29
>>> value_observed("COc1ccc(C(=O)c2ccc3c(-c4ccc(OCC(=O)N5CCN(Cc6ccccc6)CC5)cc4)nocc2-3)cc1")
3.74
>>> value_observed("COc1ccc(C(=O)c2ccc3c(-c4cc(Br)c(OCC(=O)O)c(Br)c4)nocc2-3)cc1")
3.21
>>> value_observed("CCCCCCCCCCCCCCc1ccc(C(=O)c2ccc3c(-c4ccc(OCC(=O)O)cc4)nocc2-3)cc1")
2.15

Request: What is its log10(IC50) for Tyrosine-protein phosphatase non-receptor type 1 (Homo sapiens, UniProt P18031)? Entry: COc1ccc(C(=O)c2ccc3c(-c4ccc(O[C@@H](Cc5ccccc5)C(=O)O)cc4)nocc2-3)cc1
Result: 3.89

Request: What is its log10(IC50) for Tyrosine-protein phosphatase non-receptor type 1 (Homo sapiens, UniProt P18031)? Entry: CCCCCCCCCCCCCCC(=O)c1ccc2c(-c3ccc(OCC(=O)O)cc3)nocc1-2
Result: 2.43

Request: What is its log10(IC50) for Tyrosine-protein phosphatase non-receptor type 1 (Homo sapiens, UniProt P18031)? Entry: O=C(O)COc1ccc(-c2nocc3c(C(=O)c4cccc(C(F)(F)F)c4)ccc2-3)cc1
Result: 3.88

====

- SYSTEM_UNDER_TEST: Tyrosine-protein phosphatase non-receptor type 1 (Homo sapiens) (UniProt P18031)
- TEST_DESCRIPTION: Inhibitory activity against recombinant human PTP1B at 10 uM
Activity calls are given as the source filed them. No cut-off for these calls is given here.
REPORTED_PROPERTY: inhibition

Below: 4 compounds and their reported inhibition.
>>> value_observed("O=C(O)COc1ccc(-c2nocc3c(C(=O)CCC4CCCC4)ccc2-3)cc1")
"42.4%"
>>> value_observed("COc1ccc(CC(=O)c2ccc3c(-c4ccc(OCC(=O)O)cc4)nocc2-3)cc1")
"85.5%"
>>> value_observed("COc1ccc(C(=O)c2ccc3c(-c4ccc(OCC(=O)O)cc4)nocc2-3)cc1")
"81.5%"
>>> value_observed("O=C(O)COc1ccc(-c2nocc3c(C(=O)c4ccco4)ccc2-3)cc1")
"inactive"

Request: What is its inhibition for Tyrosine-protein phosphatase non-receptor type 1 (Homo sapiens) (UniProt P18031)? Entry: COc1ccc(C(=O)c2ccc3c(-c4ccc(OCC(=O)O)cc4)noc(C)c2-3)cc1
Result: inactive

Request: What is its inhibition for Tyrosine-protein phosphatase non-receptor type 1 (Homo sapiens) (UniProt P18031)? Entry: COc1ccc(-c2nocc3cccc2-3)cc1
Result: 3%

Request: What is its inhibition for Tyrosine-protein phosphatase non-receptor type 1 (Homo sapiens) (UniProt P18031)? Entry: N#Cc1cccc(C(=O)c2ccc3c(-c4ccc(OCC(=O)O)cc4)nocc2-3)c1
Result: inactive

Request: What is its inhibition for Tyrosine-protein phosphatase non-receptor type 1 (Homo sapiens) (UniProt P18031)? Entry: COCCNCc1ccc(C(=O)c2ccc3c(-c4ccc(OCC(=O)O)cc4)nocc2-3)cc1
Result: 10.2%

Request: What is its inhibition for Tyrosine-protein phosphatase non-receptor type 1 (Homo sapiens) (UniProt P18031)? Entry: COc1ccc(C(=O)c2ccc3c(-c4ccc(O[C@@H](Cc5ccccc5)C(=O)O)cc4)nocc2-3)cc1
Result: 80.1%

Request: What is its inhibition for Tyrosine-protein phosphatase non-receptor type 1 (Homo sapiens) (UniProt P18031)? Entry: O=C(O)COc1ccc(-c2nocc3c(C(=O)C4CCCC4)ccc2-3)cc1
Result: 15.7%

Request: What is its inhibition for Tyrosine-protein phosphatase non-receptor type 1 (Homo sapiens) (UniProt P18031)? Entry: COc1ccc(C(=O)c2ccc3c(-c4ccc(OC(C(=O)O)C(=O)O)cc4)nocc2-3)cc1
Result: 3.3%

Request: What is its inhibition for Tyrosine-protein phosphatase non-receptor type 1 (Homo sapiens) (UniProt P18031)? Entry: COc1ccc(C(=O)c2ccc3c(-c4ccc(OCC(=O)NCCO)cc4)nocc2-3)cc1
Result: inactive

Request: What is its inhibition for Tyrosine-protein phosphatase non-receptor type 1 (Homo sapiens) (UniProt P18031)? Entry: O=C(O)COc1ccc(-c2nocc3cccc2-3)cc1
Result: 27.4%
